Every entry's value here was drawn from patent US20250091992A1.

Recorded pIC50 values (human serotonin transporter (Homo sapiens)) are given below.
Reminder that pIC50 is minus the log10 of a molar concentration.

// solved cases for pIC50 follow
* CCCCOc1cc([C@@]23CCC(=O)C[C@@H]2N(C)CC3)ccc1OCC1CC1 | 6.10
* CCOc1ccc([C@@]23CCC(=O)C[C@@H]2N(C)CC3)cc1OCC1CC1 | 7.70
* CCOc1cc([C@@]23CCC(=O)C[C@@H]2N(C)CC3)ccc1OC | 8.70

Attention now shifts to the item below.
Data point: `CCSc1cc([C@@]23CCC(=O)C[C@@H]2N(C)CC3)ccc1OC` ; pIC50 = 8.30

###

# ASSAY TARGET: human recombinant PDE-4D2 (Homo sapiens)
# PROCEDURE DETAILS: PDE4-D2 assay (Compounds of Formula I), SPA
# Format: biochemical
# ASSAY CONDITIONS: 4-parameter logistical fit, two technical replicates
QUANTITY KIND: IC50

Examples with answers:
- CCCCOc1cc([C@@]23CCC(=O)C[C@@H]2N(C)CC3)ccc1OCC1CC1: > 30 µM
- COc1ccc([C@]23CCC(=O)C=C2N(C)CC3)cc1OC: > 3 µM
- COc1ccc([C@@]23CCC(=O)C[C@@H]2N(C)CC3)cc1O: > 30 µM
- CCSc1cc([C@@]23CCC(=O)C[C@@H]2N(C)CC3)ccc1OC: 1.3 µM
- CN1CC[C@]2(c3ccc(OCC4CC4)c(O)c3)CCC(=O)C[C@H]12: > 30 µM

Entry `C#CCOc1cc([C@@]23CCC(=O)C[C@@H]2N(C)CC3)ccc1OC` under human recombinant PDE-4D2 (Homo sapiens) had IC50 of < 3 µM

Summary line: `CN1CC[C@]2(c3ccc(OCC4CC4)c(OCC4CC4)c3)CCC(=O)C[C@H]12` , human recombinant PDE-4D2 (Homo sapiens), reported IC50 = > 30 µM

For `COc1ccc([C@@]23CCC(=O)C=C2N(C)CC3)cc1OC` on human recombinant PDE-4D2 (Homo sapiens), measured IC50 was > 3 µM

Value (IC50, human recombinant PDE-4D2 (Homo sapiens)) for record `COc1cc([C@@]23CCC(=O)C[C@@H]2N(C)CC3)ccc1OCC1CC1` = > 30 µM

###

# PROCEDURE DETAILS: in vivo
# Parameters: species or system male C57Bl/6J mice
# ASSAY CONDITIONS: male, C57Bl/6J, mouse, ip, 30 mg/kg
QUANTITY KIND: Cmax (ng/mL)
Report only the number, with the unit ng/mL understood.

Illustrative cases are given below, each with its answer.
- CCOc1ccc([C@@]23CCC(=O)C[C@@H]2N(C)CC3)cc1OCC1CC1: 492
- C=CCOc1cc([C@@]23CCC(=O)C[C@@H]2N(C)CC3)ccc1OC: 2330
- COc1ccc([C@@]23CCC(=O)C[C@@H]2N(C)CC3)cc1OC1CCCC1: 796
- CCOc1cc([C@@]23CCC(=O)C[C@@H]2N(C)CC3)ccc1OC: 2610
- CCOc1ccc([C@@]23CCC(=O)C[C@@H]2N(C)CC3)cc1OC1CCCC1: 831

Field: next molecule
# Cmax of `CCOc1ccc([C@@]23CCC(=O)C[C@@H]2N(C)CC3)cc1OCC` = 2430

###

# ASSAY TARGET: human recombinant PDE-4D2 (Homo sapiens, UniProt Q08499)
# Sequence (Q08499 303-809): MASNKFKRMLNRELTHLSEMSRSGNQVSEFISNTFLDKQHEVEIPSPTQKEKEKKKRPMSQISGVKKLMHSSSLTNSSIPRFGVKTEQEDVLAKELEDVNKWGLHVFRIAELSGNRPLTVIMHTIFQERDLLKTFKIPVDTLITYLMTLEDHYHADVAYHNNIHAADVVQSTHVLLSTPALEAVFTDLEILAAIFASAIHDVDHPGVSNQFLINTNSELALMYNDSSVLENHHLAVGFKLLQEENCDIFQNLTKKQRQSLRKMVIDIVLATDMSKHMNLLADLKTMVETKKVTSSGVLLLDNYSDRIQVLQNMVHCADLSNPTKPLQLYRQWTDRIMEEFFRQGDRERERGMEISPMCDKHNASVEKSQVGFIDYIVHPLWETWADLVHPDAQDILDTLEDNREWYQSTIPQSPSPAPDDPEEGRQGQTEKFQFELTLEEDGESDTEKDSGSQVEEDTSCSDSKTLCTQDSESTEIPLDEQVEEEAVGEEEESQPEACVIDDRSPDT
# PROCEDURE DETAILS: PDE4-D2 assay (Compounds of Formula I), SPA
# Format: biochemical
# ASSAY CONDITIONS: 30 μM; relative to Ro 20-1724
Below, each of the compounds is paired with its reported inhibition at 30 µM value.
A number alone suffices; assume %.

Examples with their reported inhibition at 30 µM follow.
- CC(C)Oc1ccc([C@@]23CCC(=O)C[C@@H]2N(C)CC3)cc1OC1CCCC1: 55
- CC(C)Oc1ccc([C@@]23CCC(=O)C[C@@H]2N(C)CC3)cc1O: -3

In plain terms, `COc1cc([C@@]23CCC(=O)C[C@@H]2N(C)CC3)ccc1OC(C)C` has a documented inhibition at 30 µM of 3

The reported inhibition at 30 µM of the compound `CCCCOc1cc([C@@]23CCC(=O)C[C@@H]2N(C)CC3)ccc1OC(C)C` was 31

inhibition at 30 µM recorded for this compound, `CC(C)Oc1ccc([C@@]23CCC(=O)C[C@@H]2N(C)CC3)cc1OC1CCCCC1` , is 20

The compound identified as `CCOc1cc([C@@]23CCC(=O)C[C@@H]2N(C)CC3)ccc1OC(C)C` registered its inhibition at 30 µM at 32

For record `CCOc1ccc([C@@]23CCC(=O)C[C@@H]2N(C)CC3)cc1O` the listed inhibition at 30 µM is 3

###

# ASSAY TARGET: hSERT (Homo sapiens, UniProt P31645)
# Construct: expressed in transfected cells
# PROCEDURE DETAILS: SERT assay (Compounds of Formula II), transporter uptake assay kit
# Format: cell-based
Below is a list of entries, each paired with its recorded inhibition at 1 µM value.
Your answer is read as %, so omit the unit and give the number.

• COc1ccc([C@@]23CC[C@@H](OC(=O)C(C)N)C[C@@H]2N(C)CC3)cc1OC (stereo partly shown) = 95

Reported inhibition at 1 µM ( `COc1ccc([C@@]23C=C[C@@H](OC(=O)c4ccccc4)C[C@@H]2N(C)CC3)cc1OC` ) = 92

The reported inhibition at 1 µM of the compound `COc1ccc([C@@]23C=C[C@@H](OC(=O)C(C)C)C[C@@H]2N(C)CC3)cc1OC` was 99

Reported inhibition at 1 µM ( `COc1ccc([C@@]23C=C[C@@H](OC(=O)c4ccc[nH]4)C[C@@H]2N(C)CC3)cc1OC` ) = 101

###

# ASSAY TARGET: human serotonin transporter (Homo sapiens, UniProt P31645);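 note: Read-out: uptake of tritium-labelled serotonin, measured by scintillation counting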
# Sequence (P31645 whole entry): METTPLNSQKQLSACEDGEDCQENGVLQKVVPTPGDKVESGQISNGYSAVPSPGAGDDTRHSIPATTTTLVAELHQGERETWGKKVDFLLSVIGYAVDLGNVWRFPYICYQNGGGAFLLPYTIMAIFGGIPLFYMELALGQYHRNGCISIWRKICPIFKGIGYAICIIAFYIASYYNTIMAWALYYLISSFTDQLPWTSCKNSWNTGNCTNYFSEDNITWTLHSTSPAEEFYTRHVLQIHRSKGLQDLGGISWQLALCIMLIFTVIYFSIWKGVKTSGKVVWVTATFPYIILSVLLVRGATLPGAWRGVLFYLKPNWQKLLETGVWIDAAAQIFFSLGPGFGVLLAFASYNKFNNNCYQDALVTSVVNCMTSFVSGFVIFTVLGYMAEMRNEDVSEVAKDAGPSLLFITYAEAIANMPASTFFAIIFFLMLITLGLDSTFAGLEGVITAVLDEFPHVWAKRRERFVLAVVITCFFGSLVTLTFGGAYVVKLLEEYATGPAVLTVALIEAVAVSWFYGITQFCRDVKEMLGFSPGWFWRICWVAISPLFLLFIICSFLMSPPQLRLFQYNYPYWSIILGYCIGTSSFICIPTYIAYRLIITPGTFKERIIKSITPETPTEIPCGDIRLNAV
# ASSAY CONDITIONS: 10 µM
QUANTITY KIND: inhibition

Reference set, count: 3
• CC(C)Oc1ccc([C@@]23CCC(=O)C[C@@H]2N(C)CC3)cc1OC1CCCC1 = 98%
• CCCCOc1cc([C@@]23CCC(=O)C[C@@H]2N(C)CC3)ccc1OC(C)C = 95%
• CC(C)Oc1ccc([C@@]23CCC(=O)C[C@@H]2N(C)CC3)cc1OC1CCCCC1 = 81%

Next molecule, inhibition to be filled in.
// returns inhibition for `CC(C)Oc1ccc([C@@]23CCC(=O)C[C@@H]2N(C)CC3)cc1OCC1CC1` with human serotonin transporter (Homo sapiens, UniProt P31645); value = 91%

###

Each entry below lists one item and its recorded AUC(0-inf) value.
# PROCEDURE DETAILS: in vivo
# Design: species or system male C57Bl/6J mice
# ASSAY CONDITIONS: male, C57Bl/6J, mouse, ip, 30 mg/kg
Record the result as a number with its unit.

The cases that follow already have their AUC(0-inf) on record.
- CCOc1ccc([C@@]23CCC(=O)C[C@@H]2N(C)CC3)cc1OCC1CC1 [Compound 24]: 825 ng·h/mL
- COc1ccc([C@@]23CCC(=O)C[C@@H]2N(C)CC3)cc1OC1CCCC1 [Compound 11]: 1040 ng·h/mL
- CCOc1ccc([C@@]23CCC(=O)C[C@@H]2N(C)CC3)cc1OCC [Compound 21]: 1830 ng·h/mL
- CCOc1ccc([C@@]23CCC(=O)C[C@@H]2N(C)CC3)cc1OC1CCCC1 [Compound 27]: 1400 ng·h/mL
- CCOc1cc([C@@]23CCC(=O)C[C@@H]2N(C)CC3)ccc1OC [Compound 6]: 1960 ng·h/mL

Here is another molecule to look at.
For reference, reported AUC(0-inf) for C=CCOc1cc([C@@]23CCC(=O)C[C@@H]2N(C)CC3)ccc1OC [Compound 13] stands at 2100 ng·h/mL

###

# ASSAY TARGET: human recombinant PDE-4B1 (Homo sapiens)
# Sequence (Q07343 whole entry): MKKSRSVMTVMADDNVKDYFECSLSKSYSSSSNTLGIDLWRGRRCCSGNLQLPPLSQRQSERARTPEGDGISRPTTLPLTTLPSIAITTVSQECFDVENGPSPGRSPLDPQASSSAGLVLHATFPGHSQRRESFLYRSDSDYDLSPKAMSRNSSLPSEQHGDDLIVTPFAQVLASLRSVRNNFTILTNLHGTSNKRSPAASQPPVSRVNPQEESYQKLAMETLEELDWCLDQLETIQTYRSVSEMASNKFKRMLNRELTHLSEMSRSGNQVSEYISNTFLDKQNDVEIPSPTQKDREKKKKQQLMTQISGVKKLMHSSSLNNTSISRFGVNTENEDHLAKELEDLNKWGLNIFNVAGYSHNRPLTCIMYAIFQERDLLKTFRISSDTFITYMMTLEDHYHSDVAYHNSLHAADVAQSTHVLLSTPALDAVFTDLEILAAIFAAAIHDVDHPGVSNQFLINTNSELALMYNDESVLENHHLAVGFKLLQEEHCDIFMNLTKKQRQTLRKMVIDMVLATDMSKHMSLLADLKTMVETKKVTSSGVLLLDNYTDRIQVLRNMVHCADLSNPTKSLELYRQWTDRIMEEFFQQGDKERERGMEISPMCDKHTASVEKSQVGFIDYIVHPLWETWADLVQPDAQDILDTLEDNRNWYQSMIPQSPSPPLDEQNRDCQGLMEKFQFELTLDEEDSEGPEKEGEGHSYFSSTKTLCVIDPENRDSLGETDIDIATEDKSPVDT
# PROCEDURE DETAILS: PDE4-B1 assay (Compounds of Formula I), SPA
# Type: biochemical
# ASSAY CONDITIONS: 30 μM; relative to Ro 20-1724
QUANTITY KIND: inhibition at 30 µM (%)
The reply should contain only the number, in %.

The following molecules have reported results that may help.
- CC(C)Oc1ccc([C@@]23CCC(=O)C[C@@H]2N(C)CC3)cc1OC1CCCC1: 53
- CC(C)Oc1ccc([C@@]23CCC(=O)C[C@@H]2N(C)CC3)cc1OC1CCCCC1: 26
- CCOc1cc([C@@]23CCC(=O)C[C@@H]2N(C)CC3)ccc1OC(C)C: 40
- CCOc1ccc([C@@]23CCC(=O)C[C@@H]2N(C)CC3)cc1O: -1

Measured inhibition at 30 µM, `CC(C)Oc1ccc([C@@]23CCC(=O)C[C@@H]2N(C)CC3)cc1OCC1CC1` : 38

Recorded inhibition at 30 µM (molecule `CCOc1ccc([C@@]23CCC(=O)C[C@@H]2N(C)CC3)cc1OC1CCCCC1` ): 88

Value of inhibition at 30 µM reported for the molecule `CC(C)Oc1ccc([C@@]23CCC(=O)C[C@@H]2N(C)CC3)cc1O` is -4

The molecule listed as `CCOc1ccc([C@@]23CCC(=O)C[C@@H]2N(C)CC3)cc1SC` shows inhibition at 30 µM equal to 61
